# Test description: Distribution coefficient, log D of the compound at pH 7.4
# Type: physicochemical
# Experimental setup: octanol/water
# note: boundary value 1 maps to false; logD below it maps to true

The examples below pair each entry with its known result.
| Compound | Class |
| --- | --- |
| O=C(Cc1ccc(Cl)c(Cl)c1)N1CCNC2CCCC(N3CCC(O)C3)C21 (racemic) | true |
| COC(=O)N1CCN(C(=O)Cc2ccc(Cl)c(Cl)c2)C2C(N3CCC(O)C3)CCCC21 (racemic) | false |
| O=C(Cc1ccc(Cl)c(Cl)c1)N1CCN(Cc2ccccc2)[C@@H]2CCC[C@H](N3CCCC3)[C@H]21 (single isomer, unassigned) | false |
| COC(=O)N1CCN(C(=O)Cc2ccc(Cl)c(Cl)c2)[C@H]2[C@H]1CCC[C@@H]2N1CCCC1 (racemic) | false |

Okay, next one:
Query :: Dear reviewer, please state whether O=C(Cc1ccc(Cl)c(Cl)c1)N1CCN(Cc2ccccc2)C2CCCC(N3CCC(O)C3)C21 (racemic) has logD strictly beneath 1.
Result :: false

----------
Reported inhibition values for a set of compounds
# Test description: Displacement of [3H]-DTG from sigma-2 receptor in rat liver membrane at 10 uM in presence of (+)-pentazocine
# Format: cell membranes

Record excerpt, results attached:
| Compound | inhibition |
| --- | --- |
| O=C(Cc1ccc(Cl)c(Cl)c1)N1CCN(Cc2cnc[nH]2)C2CCCC(N3CCCC3)C21 (racemic) | 6% |
| CN1CCN(C(=O)Cc2ccc(Cl)c(Cl)c2)C2C1CCCC2N1CCC(O)C1 (racemic) | 43% |
| O=C(c1ccccc1)N1CCN(C(=O)Cc2ccc(Cl)c(Cl)c2)C2C(N3CCC(O)C3)CCCC21 (racemic) | 3% |

Then this compound:
Query :: Specify reported inhibition for the compound shown: O=C(Cc1ccc(Cl)c(Cl)c1)N1CCN(Cc2cnc[nH]2)C2CCCC(N3CCC(O)C3)C21 (racemic)
Result :: 0%

----------
Reported pKi values for a set of compounds
# Tested system: Kappa-type opioid receptor (Cavia porcellus, UniProt P41144)
# Sequence (P41144 whole entry): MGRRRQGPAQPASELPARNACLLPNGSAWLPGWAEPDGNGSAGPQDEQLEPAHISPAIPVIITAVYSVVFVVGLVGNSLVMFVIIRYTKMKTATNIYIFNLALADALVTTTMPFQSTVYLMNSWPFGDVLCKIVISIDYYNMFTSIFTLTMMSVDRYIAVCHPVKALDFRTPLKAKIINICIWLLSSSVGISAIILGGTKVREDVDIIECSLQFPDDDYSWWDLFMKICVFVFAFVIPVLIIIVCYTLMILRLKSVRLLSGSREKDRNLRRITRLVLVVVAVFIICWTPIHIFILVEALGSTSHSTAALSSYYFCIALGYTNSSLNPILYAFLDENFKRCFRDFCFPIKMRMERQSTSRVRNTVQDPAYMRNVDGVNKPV
Please note pKi is a logarithmic value: minus log10 of concentration in mol/L. Answer with that number alone.

Record excerpt, results attached:
| Compound | pKi |
| --- | --- |
| O=C(Cc1ccc(Cl)c(Cl)c1)N1CCN(Cc2ccccn2)C2CCCC(N3CCCC3)C21 (racemic) | 8.38 |
| CCCCN1CCN(C(=O)Cc2ccc(Cl)c(Cl)c2)C2C(N3CCCC3)CCCC21 (racemic) | 8.51 |
| COc1ccc(CN2CCN(C(=O)Cc3ccc(Cl)c(Cl)c3)C3C(N4CCCC4)CCCC32)cc1 (racemic) | 8.17 |

Then this compound:
Query :: Report value: pKi, system: Kappa-type opioid receptor (Cavia porcellus, UniProt P41144), compound: COC(=O)CC(=O)N1CCN(C(=O)Cc2ccc(Cl)c(Cl)c2)C2C(N3CCCC3)CCCC21 (racemic)
Result :: 7.96
